Target: adenylosuccinate synthetase (AdSS) (Helicobacter pylori, UniProt P56137)
Construct: gene purA; recombinant protein expressed from pET21b-HPpurA
Sequence (P56137 1-411): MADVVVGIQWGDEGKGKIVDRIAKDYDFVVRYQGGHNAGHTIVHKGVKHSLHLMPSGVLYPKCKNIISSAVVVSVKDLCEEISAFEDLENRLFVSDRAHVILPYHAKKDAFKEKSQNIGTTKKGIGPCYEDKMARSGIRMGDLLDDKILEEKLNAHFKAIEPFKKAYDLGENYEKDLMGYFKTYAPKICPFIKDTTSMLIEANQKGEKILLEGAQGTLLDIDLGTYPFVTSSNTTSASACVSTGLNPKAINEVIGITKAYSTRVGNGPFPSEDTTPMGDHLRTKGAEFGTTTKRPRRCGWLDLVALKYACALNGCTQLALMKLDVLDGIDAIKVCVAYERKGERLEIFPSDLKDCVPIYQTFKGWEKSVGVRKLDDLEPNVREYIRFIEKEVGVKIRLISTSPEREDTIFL
Test: spectrophotometric enzyme assay at […] nm, competitive inhibition fit and Dixon plot
Assay type: biochemical
metric: Ki (nM)
One number for each entry, in nM.

What does the record list as Ki for "O=CN(O)CC(=O)O" ?
190
